The reported measurements were obtained from patent US20250361234A1.

# reported IC50; entries follow
assay system: full-length SARM1 (FL-SARM1) (Homo sapiens, UniProt Q6SZW1)
Sequence (Q6SZW1 28-724): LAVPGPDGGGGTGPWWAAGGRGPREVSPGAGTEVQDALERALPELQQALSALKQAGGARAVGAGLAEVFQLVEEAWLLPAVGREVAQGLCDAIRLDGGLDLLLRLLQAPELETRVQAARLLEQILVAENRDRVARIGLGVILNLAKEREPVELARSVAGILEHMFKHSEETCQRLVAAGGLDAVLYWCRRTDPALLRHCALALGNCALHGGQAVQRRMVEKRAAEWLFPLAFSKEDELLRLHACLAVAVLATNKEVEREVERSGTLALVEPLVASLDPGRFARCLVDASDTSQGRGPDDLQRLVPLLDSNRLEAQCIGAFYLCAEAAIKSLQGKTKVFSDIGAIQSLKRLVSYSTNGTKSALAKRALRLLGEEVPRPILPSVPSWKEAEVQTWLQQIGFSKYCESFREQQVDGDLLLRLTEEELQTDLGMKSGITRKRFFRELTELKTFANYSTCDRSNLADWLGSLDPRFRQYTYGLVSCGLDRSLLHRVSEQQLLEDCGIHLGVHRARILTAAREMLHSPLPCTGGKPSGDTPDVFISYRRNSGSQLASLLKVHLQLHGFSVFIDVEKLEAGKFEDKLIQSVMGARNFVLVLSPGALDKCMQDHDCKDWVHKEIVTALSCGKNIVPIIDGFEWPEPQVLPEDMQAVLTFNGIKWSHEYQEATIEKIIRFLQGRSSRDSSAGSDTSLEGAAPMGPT
procedure text: FL-SARM1 cellular lysate assay (NAD/NADH-Glo readout of remaining NAD+)
assay setup: Activity (μM), SARM1 cellular lysate from transfected HEK293T cells, NAD+ and NMN, 11 point curve

compound	IC50
Cc1ccc(NC(=O)N2C3CC[C@@H](C(=O)N(C)C)[C@@H]2C3)cc1-c1cncc(F)c1 [Example 34]	47.3 µM
Cc1ccc(NC(=O)[C@H]2C[C@@H](C3CC3(F)F)C2)cc1-c1cccnc1 (stereo partly drawn) [Example 100]	1.5 µM
O=C(Nc1ccc(Cl)c(-c2cncc(F)c2)c1)N1C2C[C@H](OC(F)F)C[C@H]1C2 [Example 55]	0.3 µM
COc1ccc(-c2cc(NC(=O)N3[C@@H]4C[C@@H](C)C[C@H]3C4)c(F)cc2Cl)cn1 [Example 131]	0.7 µM
Cc1ccc(NC(=O)[C@@H]2CC2(F)F)cc1-c1cccnc1C [Example 112]	33.3 µM

Endpoint output: IC50 of Cc1ccc(NC(=O)[C@H]2C[C@H](C3CC3(F)F)C2)cc1-c1cccnc1 (stereo partly drawn) [Example 99] . Value?
5.1 µM

Ok, now Cc1nnc([C@]23C[C@H](C)C[C@H](C2)N3C(=O)Nc2ccc(C(F)(F)F)c(-c3cncc(F)c3)c2)o1 (single isomer, unassigned) [Example 120]
> 50 µM

Could you do the same for Cc1ccc(NC(=O)N2C3C[C@H]2C[C@@H](C(C)(C)O)C3)cc1-c1cncc(F)c1 [Example 9] , please?
4.2 µM

Cool, now Cc1ccc(NC(=O)N2C3C[C@H](C)C[C@@H]2C3)cc1-c1cccnc1 [Example 17]
0.008 µM

Follow-up entry: Cc1ccc(NC(=O)N2C3C[C@H](OC(F)F)C[C@@H]2C3)cc1-c1cncc(F)c1 [Example 29]
0.1 µM

Entry to check: COc1ncccc1-c1cc(NC(=O)N2C3CCCC2C3)ccc1C [Example 68]
2.5 µM

Same for Cc1ccc(NC(=O)N2C3CC[C@H](C#N)[C@@H]2C3)cc1-c1cncc(F)c1 [Example 30]
5.5 µM

Please answer likewise for Cc1ccc(NC(=O)C2CCCN2C(=O)OC(C)(C)C)cc1-c1cncc(F)c1 (racemic) [Example 105]
13.5 µM

Continue with Cc1cncc(-c2cc(NC(=O)N3C4CCCC3C4)ccc2C)c1 [Example 115]
0.1 µM
